Biological target: T1, native human MET on living cells (human, UniProt P08581 25-1390)
T1 construct: whole, on cells; also called Human cells (A549); HPAF-II
T1 sequence (P08581 25-1390): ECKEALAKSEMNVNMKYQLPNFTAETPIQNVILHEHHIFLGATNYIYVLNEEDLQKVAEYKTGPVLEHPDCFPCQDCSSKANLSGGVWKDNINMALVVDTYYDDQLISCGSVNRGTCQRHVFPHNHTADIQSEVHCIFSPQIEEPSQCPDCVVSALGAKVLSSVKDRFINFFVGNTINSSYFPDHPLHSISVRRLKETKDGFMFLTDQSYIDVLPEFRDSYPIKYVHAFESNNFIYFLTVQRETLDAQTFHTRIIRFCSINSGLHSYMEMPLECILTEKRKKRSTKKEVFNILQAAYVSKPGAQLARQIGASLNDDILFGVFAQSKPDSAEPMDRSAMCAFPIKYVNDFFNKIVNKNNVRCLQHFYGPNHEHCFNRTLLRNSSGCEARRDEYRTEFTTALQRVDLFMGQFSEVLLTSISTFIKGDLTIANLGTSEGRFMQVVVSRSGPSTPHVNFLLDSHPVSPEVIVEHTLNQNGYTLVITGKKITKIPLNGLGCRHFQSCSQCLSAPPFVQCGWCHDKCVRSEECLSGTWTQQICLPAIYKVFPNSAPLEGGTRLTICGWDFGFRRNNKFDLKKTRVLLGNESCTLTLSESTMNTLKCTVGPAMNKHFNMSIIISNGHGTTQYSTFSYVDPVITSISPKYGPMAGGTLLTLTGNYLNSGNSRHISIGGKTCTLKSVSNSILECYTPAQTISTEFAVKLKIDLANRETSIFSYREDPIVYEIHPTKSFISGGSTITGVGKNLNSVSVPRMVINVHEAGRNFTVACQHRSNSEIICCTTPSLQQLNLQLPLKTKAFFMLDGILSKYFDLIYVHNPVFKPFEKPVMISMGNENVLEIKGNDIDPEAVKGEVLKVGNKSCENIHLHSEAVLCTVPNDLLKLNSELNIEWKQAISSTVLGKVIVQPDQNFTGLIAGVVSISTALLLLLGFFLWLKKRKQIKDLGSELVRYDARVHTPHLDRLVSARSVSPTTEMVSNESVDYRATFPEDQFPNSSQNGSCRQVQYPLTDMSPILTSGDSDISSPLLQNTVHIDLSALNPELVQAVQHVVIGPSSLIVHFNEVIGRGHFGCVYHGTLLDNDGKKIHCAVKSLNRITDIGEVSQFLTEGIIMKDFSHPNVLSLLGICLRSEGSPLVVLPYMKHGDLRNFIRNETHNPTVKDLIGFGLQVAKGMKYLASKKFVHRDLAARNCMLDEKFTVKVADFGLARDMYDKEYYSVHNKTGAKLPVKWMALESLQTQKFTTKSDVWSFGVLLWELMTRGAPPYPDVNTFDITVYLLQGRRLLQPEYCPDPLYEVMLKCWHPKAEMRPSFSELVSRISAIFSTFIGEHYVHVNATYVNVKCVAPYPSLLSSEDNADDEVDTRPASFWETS
Assay: flow cytometry, A549 cells
PROPERTY NAME: EMAX

>>> value("74C8 chimeric llama-human IgG1 mAb (antibody, V domains shown, llama VH on human IgG1 CH1-CH2-CH3, llama VL on human lambda CL) VH: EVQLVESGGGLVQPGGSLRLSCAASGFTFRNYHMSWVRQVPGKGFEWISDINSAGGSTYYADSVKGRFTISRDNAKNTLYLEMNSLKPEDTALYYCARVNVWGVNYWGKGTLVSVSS VL: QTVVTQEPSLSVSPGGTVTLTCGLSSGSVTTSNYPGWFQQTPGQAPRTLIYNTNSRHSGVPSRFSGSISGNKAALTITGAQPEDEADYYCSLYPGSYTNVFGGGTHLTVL")
"85.7 % relative to control"
>>> value("76G7 chimeric llama-human IgG1 mAb (antibody, V domains shown, llama VH on human IgG1 CH1-CH2-CH3, llama VL on human lambda CL) VH: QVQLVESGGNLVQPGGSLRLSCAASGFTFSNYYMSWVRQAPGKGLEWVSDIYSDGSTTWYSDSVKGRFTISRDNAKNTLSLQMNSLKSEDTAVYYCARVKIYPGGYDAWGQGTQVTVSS VL: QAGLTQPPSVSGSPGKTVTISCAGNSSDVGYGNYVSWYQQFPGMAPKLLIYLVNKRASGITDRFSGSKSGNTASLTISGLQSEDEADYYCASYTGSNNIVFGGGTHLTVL")
"121 % relative to control"
>>> value("76H10 chimeric llama-human IgG1 mAb (antibody, V domains shown, llama VH on human IgG1 CH1-CH2-CH3, llama VL on human lambda CL) VH: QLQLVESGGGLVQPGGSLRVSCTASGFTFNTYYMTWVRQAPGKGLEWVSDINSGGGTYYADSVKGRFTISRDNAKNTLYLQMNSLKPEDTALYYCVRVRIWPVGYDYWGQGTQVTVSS VL: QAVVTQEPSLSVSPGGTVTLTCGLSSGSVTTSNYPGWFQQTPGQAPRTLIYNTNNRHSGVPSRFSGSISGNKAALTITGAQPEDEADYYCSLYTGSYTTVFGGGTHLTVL")
"130 % relative to control"
